Here's what we have: pIC50 numbers for BTK (Homo sapiens (Human)).
pIC50: −log10 of the molar value.
Reported Property: pIC50

Sample records with pIC50:
molecule="N#C[C@H]1CC[C@@]2(C1)Nc1c(cnc3[nH]cc(C(=O)c4ccc(Oc5ccccc5)cc4Cl)c13)NC2=O (single isomer, unassigned) [Z26-4]" reported_property=pIC50 reported_value=7.44
molecule=COC[C@@]1(C)Nc2c(cnc3[nH]cc(C(=O)c4ccc(Oc5ccccc5)cc4Cl)c23)NC1=O reported_property=pIC50 reported_value=7.40
molecule="Cc1ccnc(Oc2ccc(C(=O)c3c[nH]c4ncc5c(c34)NC(C)(CO)C(=O)N5)c(Cl)c2)c1 (stereo not shown)" reported_property=pIC50 reported_value=7.64
molecule=CC1(C)COc2cnc3[nH]cc(C(=O)c4ccccc4Cl)c3c2N1 reported_property=pIC50 reported_value=7.76
molecule="N#C[C@H]1CC[C@@]2(C1)Nc1c(cnc3[nH]cc(C(=O)c4ccc(Oc5ccccc5)cc4Cl)c13)NC2=O (single isomer, unassigned) [Z26-2]" reported_property=pIC50 reported_value=7.63
molecule="CN1C(=O)[C@@](C)(CO)Nc2c1cnc1[nH]cc(C(=O)c3ccc(Oc4ccccc4)cc3Cl)c21 (single isomer, unassigned)" reported_property=pIC50 reported_value=7.49

[I] [2H]C([2H])([2H])Oc1c(F)cccc1Oc1ccc(C(=O)c2c[nH]c3ncc4c(c23)N[C@@](C)(COC)C(=O)N4)c(Cl)c1
[II] [2H]C([2H])([2H])OC[C@]1(C)Nc2c(cnc3[nH]cc(C(=O)c4ccc(Oc5ccccc5F)cc4Cl)c23)NC1=O
[III] COCC[C@]1(C)Nc2c(cnc3[nH]cc(C(=O)c4ccc(Oc5ccccc5)cc4Cl)c23)NC1=O
[IV] O=C(c1ccc(Oc2ccccc2)cc1Cl)c1c[nH]c2ncc3c(c12)N[C@@]1(CC[C@@H](O)C1)C(=O)N3 (single isomer, unassigned)
Exercise: Please list these in order of increasing pIC50. Thank you! Please respond with the labels ordered as the question requires.
Key: I, II, III, IV
(I: 7.44, II: 7.77, III: 7.99, IV: 8.26)

###

Biological target: p-BTK (C481S) (Homo sapiens (Human), UniProt Q06187, C481S)
Sequence (Q06187 whole entry C481S): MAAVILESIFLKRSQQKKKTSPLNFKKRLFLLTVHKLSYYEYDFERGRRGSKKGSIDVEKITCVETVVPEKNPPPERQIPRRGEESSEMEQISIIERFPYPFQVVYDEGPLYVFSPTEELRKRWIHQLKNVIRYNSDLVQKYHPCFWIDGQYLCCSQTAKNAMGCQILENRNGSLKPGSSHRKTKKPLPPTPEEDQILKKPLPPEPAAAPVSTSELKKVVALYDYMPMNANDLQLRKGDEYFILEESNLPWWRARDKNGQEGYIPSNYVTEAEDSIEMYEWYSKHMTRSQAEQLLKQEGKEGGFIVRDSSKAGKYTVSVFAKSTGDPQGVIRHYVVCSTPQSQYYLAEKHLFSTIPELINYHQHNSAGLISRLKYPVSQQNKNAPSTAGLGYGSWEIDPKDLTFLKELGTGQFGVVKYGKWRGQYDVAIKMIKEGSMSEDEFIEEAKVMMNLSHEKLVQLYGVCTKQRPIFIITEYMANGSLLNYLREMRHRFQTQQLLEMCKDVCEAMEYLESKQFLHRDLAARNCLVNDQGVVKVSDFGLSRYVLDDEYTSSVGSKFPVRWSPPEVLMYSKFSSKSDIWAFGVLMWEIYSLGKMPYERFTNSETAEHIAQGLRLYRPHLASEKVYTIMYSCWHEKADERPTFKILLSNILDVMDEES
Test: p-BTK cell experiment, HEK293 transfected with C481S-BTK plasmid (P-BTK Y223 sandwich ELISA)
Settings: HEK293 cells, compound cultured for two hours
Reported Property: IC50 (nM)

molecule="CN1CC[C@]2(C1)Nc1c(cnc3[nH]cc(C(=O)c4ccc(Oc5ccccc5)cc4Cl)c13)NC2=O (single isomer, unassigned) [Z2-1]" reported_property=IC50 reported_value=50

[a] CN(C)C1CCC2(C1)Nc1c(cnc3[nH]cc(C(=O)c4ccc(Oc5ccccc5)cc4Cl)c13)NC2=O (stereo not drawn) [Z137]
[b] COC[C@]1(C)Nc2c(cnc3[nH]cc(C(=O)c4ccc(Oc5cc(F)ccc5OC)cc4Cl)c23)NC1=O [Z169]
Exercise: Higher IC50: a or b ? Kindly state the label of the option you pick.
Key: a

###

Target: BTK (C481S) (Homo sapiens (Human), UniProt Q06187, C481S)
Sequence (Q06187 whole entry C481S): as above
Test: BTK C481S enzyme experiment (ADP-Glo kinase assay)
Conditions: 10 nM BTK C481S, ATP 125 μM, Poly(Glu4, Tyr1), 90 minutes at 20° C.
pIC50: −log10 of the molar value.
Reported Property: pIC50

[I] O=C(c1ccc(Oc2ccccc2)cc1Cl)c1c[nH]c2ncc3c(c12)N[C@]1(CCOC1)C(=O)N3 (single isomer, unassigned) [Z1-2]
[II] COCCOCC1(C)Nc2c(cnc3[nH]cc(C(=O)c4ccc(Oc5ccccc5)cc4Cl)c23)NC1=O (single isomer, unassigned) [Z153-2]
[III] CN1CCCC2(C1)Nc1c(cnc3[nH]cc(C(=O)c4ccc(Oc5ccccc5)cc4Cl)c13)NC2=O (stereo not shown) [Z19]
[IV] O=C(c1ccccc1Cl)c1c[nH]c2ncc3c(c12)NC1(CCOCC1)C(=O)N3 [Z197]
[V] O=C(c1ccc(Oc2ccccc2)cc1Cl)c1c[nH]c2ncc3c(c12)N[C@@]1(CC[C@H](CO)OC1)C(=O)N3 (single isomer, unassigned) [Z41-2b]
Exercise: Ascending sort, pIC50. A complete answer lists every label in the requested sequence.
Key: II, I, III, V, IV
(II: 7.29, I: 7.57, III: 7.90, V: 8.21, IV: 8.89)

[P] COC[C@]1(C)Nc2c(cnc3[nH]cc(C(=O)c4ccc(Oc5ccccc5)cc4F)c23)NC1=O (single isomer, unassigned) [Z71-2]
[Q] COC[C@]1(C)Nc2c(cnc3[nH]cc(C(=O)c4ccc(OC)c(F)c4Cl)c23)NC1=O [Z194]
Exercise: Which record would sort first by descending pIC50, P or Q ? Identify your selection by its label.
Key: P

[A] COC[C@@]1(C)Nc2c(cnc3[nH]cc(C(=O)c4ccc(Oc5ccccc5)cc4Cl)c23)NC1=O [Z13-2]
[B] COC[C@]1(C)Nc2c(cnc3[nH]cc(C(=O)c4ccc(Oc5ccccc5)cc4Cl)c23)N=C1SC [Z201]
Exercise: // returns A or B , whichever has the lower pIC50 Pick one and reply with its label.
Key: B

[P] CN1CC[C@@]2(C1)Nc1c(cnc3[nH]cc(C(=O)c4ccc(Oc5ccccc5)cc4Cl)c13)NC2=O (single isomer, unassigned) [Z2-2]
[Q] COC[C@]1(C)Nc2c(cnc3[nH]cc(C(=O)c4ccc(Oc5ncccc5Cl)cc4Cl)c23)NC1=O [Z147]
Exercise: Between P and Q , which one has the lower reported pIC50 value? Your answer should be the label attached to the chosen record.
Key: Q
